# TESTED ON: Human plasma kallikrein (Homo sapiens (Human), UniProt P03952)
# Sequence (P03952 391-638): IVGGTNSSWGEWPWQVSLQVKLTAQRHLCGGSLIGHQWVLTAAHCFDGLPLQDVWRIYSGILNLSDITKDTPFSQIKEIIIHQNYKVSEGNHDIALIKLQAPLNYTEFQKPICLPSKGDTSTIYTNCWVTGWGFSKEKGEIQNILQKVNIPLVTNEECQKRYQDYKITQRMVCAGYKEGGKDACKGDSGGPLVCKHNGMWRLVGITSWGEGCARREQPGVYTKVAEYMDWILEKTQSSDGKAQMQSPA
# Sequence (P03952 20-390 partner): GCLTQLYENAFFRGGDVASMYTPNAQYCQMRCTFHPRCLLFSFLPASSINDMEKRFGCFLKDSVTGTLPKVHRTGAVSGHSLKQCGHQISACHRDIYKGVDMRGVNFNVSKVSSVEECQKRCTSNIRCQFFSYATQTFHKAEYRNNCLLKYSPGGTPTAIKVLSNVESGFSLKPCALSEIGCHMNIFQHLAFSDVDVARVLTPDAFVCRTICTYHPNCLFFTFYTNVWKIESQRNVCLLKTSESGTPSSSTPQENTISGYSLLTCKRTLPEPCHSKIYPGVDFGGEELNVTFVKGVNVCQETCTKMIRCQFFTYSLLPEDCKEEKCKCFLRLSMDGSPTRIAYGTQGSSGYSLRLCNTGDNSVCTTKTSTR
# EXPERIMENT SUMMARY: Determination of the Ki for plasma kallikrein
# DETAILS: 37° C., fluorogenic substrate H-DPro-Phe-Arg-AFC; read-out: Ki (human Pkal)
Where a name gives a salt, the structure may show the parent alone.
MEASURE: Ki (nM)
The response must be a number in nM with no trailing unit.

# lookup: CCOc1ccc(C[C@@H](NC(=O)c2ccccc2)C(=O)N[C@@H](Cc2ccccc2)C(=O)NCc2ccc(CN)cc2)cc1 [Form 1, hydrochloride] on Human plasma kallikrein (Homo sapiens (Human), UniProt P03952), Ki = 10

* * *

# TESTED ON: Human KLK1 (Homo sapiens (Human), UniProt P06870)
# Sequence (P06870 25-262): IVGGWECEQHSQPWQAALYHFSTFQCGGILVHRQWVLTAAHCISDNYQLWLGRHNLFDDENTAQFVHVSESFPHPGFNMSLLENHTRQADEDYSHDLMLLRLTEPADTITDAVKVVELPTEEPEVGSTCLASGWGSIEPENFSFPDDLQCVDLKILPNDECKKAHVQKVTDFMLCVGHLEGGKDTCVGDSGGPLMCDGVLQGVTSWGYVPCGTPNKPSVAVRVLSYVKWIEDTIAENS
Counter-ions that a name gives are not always drawn.
MEASURE: IC50

# lookup: CCOc1ccc(C[C@@H](NC(=O)c2ccccc2)C(=O)N[C@@H](Cc2ccccc2)C(=O)NCc2ccc(CN)cc2)cc1 [Form 1, hydrochloride] on Human KLK1 (Homo sapiens (Human), UniProt P06870), IC50 = > 10 µM
